Values from paper PMC3653948

- experimental_system: PSD-95 PDZ3 (Homo sapiens, UniProt P78352)
- Construct: made in house; host or cells: E. coli One Shot BL21 Star (DE3)
- Sequence (P78352 309-401): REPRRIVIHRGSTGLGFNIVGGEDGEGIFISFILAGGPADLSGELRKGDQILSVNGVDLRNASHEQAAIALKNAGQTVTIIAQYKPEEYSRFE
- test_name: FP competition assay, PSD-95 PDZ3 (probe Cy5-CRIPT)
- Format: binding
- experimental_context: read-out: K i PDZ3
Peptide text beside a SMILES is read from it.
Each item that follows carries a reported Ki.

{"columns": ["molecule", "Ki"],
 "data": [
  ["CC[C@H](C)[C@H](NC(=O)[C@H](CCCNC(=N)N)NC(=O)[C@H](CCCNC(=N)N)NC(=O)[C@H](CC(=O)O)NC(=O)[C@H](CC(=O)O)NC(=O)[C@@H](N)Cc1ccc(O)cc1)C(=O)N1CCC[C@H]1C(=O)N[C@@H](CC(C)C)C(=O)N[C@H](C(=O)N[C@@H](CCCNC(=N)N)C(=O)N[C@H](C(=O)N[C@H](C(=O)N[C@H](C(=O)N[C@@H](Cc1ccccc1)C(=O)O)[C@@H](C)O)[C@@H](C)O)[C@@H](C)O)[C@@H](C)O [SSTR4 Human] (H-YDDRRIPLTRTTTF-OH)", "600 µM"],
  ["CC(C)C[C@H](NC(=O)[C@H](CC(C)C)NC(=O)[C@H](CO)NC(=O)[C@H](CC(=O)O)NC(=O)[C@H](CC(N)=O)NC(=O)[C@@H](NC(=O)[C@H](CO)NC(=O)[C@H](CS)NC(=O)[C@H](CC(N)=O)NC(=O)[C@H](CCCNC(=N)N)NC(=O)[C@H](CCCNC(=N)N)NC(=O)[C@H](CC(=O)O)NC(=O)[C@H](CC(=O)O)NC(=O)[C@@H](N)Cc1ccc(O)cc1)[C@@H](C)O)C(=O)O [β2AR] (H-YDDRRNCSTNDSLL-OH)", "> 1000 µM"],
  ["CC[C@H](C)[C@H](NC(=O)[C@H](CO)NC(=O)[C@@H](NC(=O)[C@H](CCC(N)=O)NC(=O)[C@H](CC(C)C)NC(=O)[C@H](CC(=O)O)NC(=O)CNC(=O)[C@H](CC(N)=O)NC(=O)[C@H](CC(C)C)NC(=O)[C@H](CC(C)C)NC(=O)[C@H](CCCNC(=N)N)NC(=O)[C@H](CC(=O)O)NC(=O)[C@H](CC(=O)O)NC(=O)[C@@H](N)Cc1ccc(O)cc1)[C@@H](C)O)C(=O)O [SSTR2A] (H-YDDRLLNGDLQTSI-OH)", "> 1000 µM"]
]}

###

# collection of Ki values tested on UniProt P78352
Peptide text beside a SMILES is read from it.

{"columns": ["compound", "experimental_system", "unit_abbreviation", "value_relation_sign", "Ki"],
 "data": [
  ["CC(C)[C@H](NC(=O)[C@H](CCCCN)NC(=O)[C@H](CO)NC(=O)[C@H](CCC(=O)O)NC(=O)[C@H](CO)NC(=O)[C@H](C)NC(=O)[C@H](Cc1ccccc1)NC(=O)CNC(=O)[C@@H]1CCCN1C(=O)[C@H](CCCNC(=N)N)NC(=O)[C@H](CCCNC(=N)N)NC(=O)[C@H](CC(=O)O)NC(=O)[C@H](CC(=O)O)NC(=O)[C@@H](N)Cc1ccc(O)cc1)C(=O)O [β1AR] (H-YDDRRPGFASESKV-OH)", "UniProt P78352", "µM", "=", 120],
  ["CC(C)[C@H](NC(=O)[C@H](CC(N)=O)NC(=O)[C@@H](NC(=O)[C@H](C)NC(=O)[C@H](CCC(=O)O)NC(=O)[C@@H](NC(=O)[C@H](Cc1ccccc1)NC(=O)[C@H](CO)NC(=O)[C@H](CC(=O)O)NC(=O)[C@H](CC(N)=O)NC(=O)[C@H](CCCNC(=N)N)NC(=O)[C@H](CC(=O)O)NC(=O)[C@H](CC(=O)O)NC(=O)[C@@H](N)Cc1ccc(O)cc1)[C@@H](C)O)[C@@H](C)O)C(=O)O [Y2] (H-YDDRNDSFTEATNV-OH)", "UniProt P78352", "µM", "=", 230],
  ["CC[C@H](C)[C@H](NC(=O)[C@H](CCCNC(=N)N)NC(=O)[C@H](CCSC)NC(=O)[C@@H](NC(=O)[C@H](CO)NC(=O)[C@H](CO)NC(=O)[C@H](CCCCN)NC(=O)[C@H](CCCNC(=N)N)NC(=O)[C@H](CC(=O)O)NC(=O)[C@@H](N)CC(=O)O)[C@@H](C)O)C(=O)N[C@@H](CO)C(=O)N[C@@H](Cc1ccc(O)cc1)C(=O)N[C@@H](CC(C)C)C(=O)O [SSTR3] (H-DDRKSSTMRISYL-OH)", "UniProt P78352", "µM", ">", 1000]
]}
